assay target: Solute carrier family 2, facilitated glucose transporter member 1 (Homo sapiens)
experiment summary: ST_JUDE_LEISH: Cytotoxicity at 2uM final concentration against transgenic Leishmania Mexicana promastigotes LmGLUT1 that are glucose transport deficient and complemented with the human glucose transporter GLUT1. Activity is measured by DNA content using SYBR green in vitro
Type: functional
measured metric: inhibition (%)
Record the value in %, omitting the unit from your answer.

// known answers, use as guide
compound	endpoint unit	inhibition
CNC(=O)c1cnc(Nc2ccc(OCC(O)CN(C)C)cc2)nc1Nc1cccc(OC)c1 (stereo not drawn)	%	3.9
CN1CCN(CCCN(Cc2csc(-c3ccc(CNCc4ccccc4)cc3)n2)C(=O)Nc2ccc3ccccc3c2)CC1	%	2.94

Note to self: inhibition recorded for `CCOC(=O)c1ccc(N2CCN(c3cc(Cl)ccc3C)CC2)c(NC(=O)Nc2ccc(Cl)c(Cl)c2)c1` was -3.21

// `COc1ccc(NC(=O)/C=C/c2ccc(Oc3ccccc3Cl)c([N+](=O)[O-])c2)cc1OCCN(C(C)C)C(C)C` : inhibition value = -0.7

`COc1cc(CN2CCC(C(=O)Nc3ccc(-c4cccc(C)c4)cc3)CC2)ccc1O` yielded inhibition of 8.11

Form: compound = `CC(C)(C)c1ccc(CN2CCC(NC(=O)c3ccc(-c4ccccc4Cl)s3)CC2)cc1` ; inhibition = 10.1

Sure, the documented inhibition for `CCCC1(NC[C@@H](O)[C@H](Cc2ccccc2)NC(=O)c2cc(NCC)cc(N3CCCCS3(=O)=O)c2)CCCCC1` is -0.81

// sample `COc1ccc(-c2csc(NC(=O)CCC(=O)O)n2)cc1OC` , its inhibition was 0.77

So for `O=C(Nc1cccc(-c2cc(-c3c(Cl)cccc3Cl)no2)c1)c1cnc2ccccc2c1` , the logged inhibition turned out to be 11.8

Entry `CCN(CCCN1CCCCC1)c1cc(C)nc(Nc2ccc(OC)cc2)n1` , inhibition reported as -2.3

inhibition reported for this compound `CC(C)(C)c1ccc(N2C(N)=NC(N)=NC2(C)C)cc1` : -0.57

The recorded inhibition for CC1CN(CC(O)Cn2c3ccc(Br)cc3c3cc(Br)ccc32)CC(C)O1 (stereo not drawn) is 2.95

# inhibition (compound: `N#Cc1ccc(-c2ccc(C(=O)NCC3CCN(CCN4CCC(c5ccc6c(c5OCC(N)=O)CCCC6)CC4)CC3)cc2)cc1` ) is -0.38
